study.target: HCV cap-independent translation
experiment.description: In vitro translation assay, FF-HCV-Ren construct, cap-independent (Ren luciferase)
pIC50: −log10 of the molar value.
reported.metric: pIC50

Solved entries:
O=C(/C=C/c1nc2cc(Cl)c(Cl)cc2[nH]1)c1c(-c2ccccc2)c2cc(Cl)ccc2[nH]c1=O :: 5.00 to 5.70
Nc1ccc2[nH]c(=O)c(C(=O)/C=C/c3nc4ccccc4[nH]3)c(-c3ccccc3)c2c1 :: < 4.70
O=C(/C=C/c1ccccc1)c1c(-c2cccnc2)c2cc(Cl)ccc2[nH]c1=O :: 4.70 to 5.00
Cc1ccnc(/C=C/C(=O)c2c(-c3ccccc3)c3cc(Cl)ccc3[nH]c2=O)c1 :: 5.00 to 5.70
COc1cncc(-c2c(C(=O)/C=C/c3cncc(F)c3)c(=O)[nH]c3ccc(Cl)cc23)c1 :: 5.00 to 5.70
Cc1cncc(/C=C/C(=O)c2c(-c3ccccc3)c3cc(Cl)ccc3[nH]c2=O)c1 :: 5.00 to 5.70

Look up and state reported pIC50 for O=C(/C=C/c1ccc(F)cc1C(F)(F)F)c1c(-c2ccccc2)c2cc(Cl)ccc2[nH]c1=O 5.00 to 5.70

// Input: O=C(/C=C/c1ccccn1)c1c(-c2cncc(Br)c2)c2cc(Cl)ccc2[nH]c1=O . Output its pIC50 only. 5.00 to 5.70
